Test system: A549 NSCLC
Experiment: NCI tumour cell line growth inhibition, 48 h
QUANTITY_MEASURED: TGI

Some solved cases for reference:
{"columns": ["MOLECULE", "TGI"],
 "data": [
  ["COc1ccc(-c2csc3c2-n2cccc2C3=O)cc1O", "> 91.5 µM"],
  ["Nc1nc(SCCC/C=C/I)nc2c1ncn2C1OC(CO)C(O)C1O (stereo unspecified)", "> 202 µM"],
  ["CCOC(=O)/C(=C\\c1ccc(F)cc1)C(C)=O", "> 100 µM"],
  ["O=C(/C=C/c1ccccc1O)/C=C/c1ccccc1O", "6.38 µM"],
  ["COC(=O)[C@]12CC=C3O[C@@H]4OC5(CCCCC5)O[C@@H]4[C@H]3C1C(=O)C=CC2=O (stereo partly specified)", "55 µM"],
  ["CCOC(=O)C(NCc1cccc(C(F)(F)F)c1)(NC(=O)c1ccccc1)C(F)(F)F (stereo unspecified)", "> 100 µM"],
  ["Cc1cc(NC(=O)NC(=O)c2ccccc2NC(=O)CN)ccc1Oc1ncc(Br)cn1", "35.8 µM"],
  ["O=C(O)CCCNS(=O)(=O)c1ccc2ccccc2c1", "> 100 µM"],
  ["CCCCCCN1CCN(Cc2ccc(N(CC)CC)cc2)C(=O)C1=O", "> 100 µM"],
  ["COc1ccc2[nH]cc(-c3nc(-c4c[nH]c5ccncc45)cs3)c2c1", "9.5 µM"]
]}

# TGI lookup, item `Cn1ccc(C(=O)NCCCCCNC(=O)c2ccn(C)c(=O)c2O)c(O)c1=O`
> 100 µM
